Assign solubility to each entry below.
- ASSAY_PROTOCOL: Solubility of esters in benzyl alcohol / benzyl benzoate / oil mixtures
- Format: physicochemical
- CONDITION_CONTEXT: 14 °C, oil or lipid, thermodynamic from solid, average over the six oil mixtures; 14 °C; read-out: Average solubility

Form field solubility, entry C[C@]12CC[C@H]3[C@@H](CCC4=CC(=O)CC[C@@]43C)[C@@H]1CC[C@@H]2OC(=O)CCC1CCCC1 [TCyp] : ~255 mg/mL

Form field solubility, entry CCCCCCCCCC(=O)OC1CCC2C3CCC4=CC(=O)CCC4(C)C3CCC12C (stereo not drawn) [TDec, Androst-4-en-17β-ol-3-one 17β-decanoate] : 534 mg/mL
